Ref: patent US6509344B1

Reported values of IC50 for individual entries
System: HCT-116
runDescription: NCI human cancer cell line screen (COMPARE screening), Colon HCT-116
Assay type: cell-based
appliedConditions: Homo sapiens; HCT-116; concentration causing 50% growth inhibition; read-out: Cytotoxicity (G150 in μM) Colon HCT-116
observedProperty: IC50 (µM)

>>> valuereported("Cn1c2c(c3ccccc3c1=O)C(=O)c1cc3c(cc1-2)OCO3 [Compound 13a]")
54
>>> valuereported("CCCCn1c2c(c3cc(OC)c(OC)cc3c1=O)C(=O)c1cc3c(cc1-2)OCO3 [Compound 13d]")
45
>>> valuereported("COc1cc2c3c(n(CCCCO)c(=O)c2cc1OC)-c1cc2c(cc1C3=O)OCO2 [Compound 19a]")
1.4

----------
System: OVCAR-3
runDescription: NCI human cancer cell line screen (COMPARE screening), Ovarian OVCAR-3
Assay type: cell-based
pIC50: −log10 of the molar value.
Examples of molecules with documented pIC50 follow.
observedProperty: pIC50

>>> valuereported("CCN1C(=O)c2cc(OC)c(OC)cc2[C@H]2C(=O)c3cc4c(cc3[C@H]21)OCO4 (relative stereo)")
6.36
>>> valuereported("C=CCn1c2c(c3cc(OC)c(OC)cc3c1=O)C(=O)c1cc3c(cc1-2)OCO3 [Compound 13c]")
5.18
>>> valuereported("COc1cc2c(cc1OC)[C@H]1C(=O)c3cc4c(cc3[C@H]1N(C)C2=O)OCO4 (relative stereo)")
5.17
>>> valuereported("O=C1c2ccccc2-c2c1c1ccccc1c(=O)n2CCCCCO")
4.03
>>> valuereported("C=CCN1C(=O)c2cc(OC)c(OC)cc2[C@H]2C(=O)c3cc4c(cc3[C@H]21)OCO4 (relative stereo)")
5.77

----------
Tested on: HCT-116
runDescription: NCI human cancer cell line screen (COMPARE screening), Colon HCT-116
Assay type: cell-based
appliedConditions: Homo sapiens; HCT-116; concentration causing 50% growth inhibition; read-out: Cytotoxicity (G150 in μM) Colon HCT-116
observedProperty: IC50 (µM)

>>> valuereported("O=C1c2ccccc2-c2c1c1ccccc1c(=O)n2CCCCO")
3.2
>>> valuereported("CCN1Cc2cc(OC)c(OC)cc2[C@@H]2[C@H]1c1cc3c(cc1[C@@H]2O)OCO3")
35
>>> valuereported("CCCCn1c2c(c3ccccc3c1=O)C(=O)c1cc3c(cc1-2)OCO3 [Compound 13b]")
2.9
>>> valuereported("COc1cc2c3c(n(C)c(=O)c2cc1OC)-c1cc(OCc2ccccc2)c(OCc2ccccc2)cc1C3=O [Compound 13h]")
80

----------
System: HCT-116
runDescription: NCI human cancer cell line screen (COMPARE screening), Colon HCT-116
Format: cell-based
appliedConditions: HCT-116; concentration causing 50% growth inhibition; read-out: Cytotoxicity (G150 in μM) Colon HCT-116
observedProperty: IC50 (µM)

>>> valuereported("COc1cc2c3c(n(C)c(=O)c2cc1OC)-c1cc2c(cc1C3=O)OCO2 [Compound 1, reference compound]")
35

----------
System: approximately 55 different cancer cell lines of diverse tumor origins
runDescription: NCI screen mean graph midpoint over all cell lines tested
Format: cell-based, human
appliedConditions: average GI50 for all cell lines tested (approximately 55); values outside test range taken as 10^-8 or 10^-4 molar; read-out: MGM (mean graph midpoint)
observedProperty: IC50 (µM)

>>> valuereported("COc1cc2c3c(n(C)c(=O)c2cc1OC)-c1cc2c(cc1C3=O)OCO2 [Compound 1, reference compound]")
20
>>> valuereported("COc1cc2c(cc1OC)[C@H]1C(=O)c3cc4c(cc3[C@H]1N(C)C2=O)OCO4 (relative stereo)")
5
>>> valuereported("C=CCn1c2c(c3cc(OC)c(OC)cc3c1=O)C(=O)c1cc3c(cc1-2)OCO3 [Compound 13c]")
4.2
>>> valuereported("CCN1C(=O)c2cc(OC)c(OC)cc2[C@H]2C(=O)c3cc4c(cc3[C@H]21)OCO4 (relative stereo)")
0.81
